Assay System: hMAO-B (Homo sapiens)
Sequence (P27338 1-520): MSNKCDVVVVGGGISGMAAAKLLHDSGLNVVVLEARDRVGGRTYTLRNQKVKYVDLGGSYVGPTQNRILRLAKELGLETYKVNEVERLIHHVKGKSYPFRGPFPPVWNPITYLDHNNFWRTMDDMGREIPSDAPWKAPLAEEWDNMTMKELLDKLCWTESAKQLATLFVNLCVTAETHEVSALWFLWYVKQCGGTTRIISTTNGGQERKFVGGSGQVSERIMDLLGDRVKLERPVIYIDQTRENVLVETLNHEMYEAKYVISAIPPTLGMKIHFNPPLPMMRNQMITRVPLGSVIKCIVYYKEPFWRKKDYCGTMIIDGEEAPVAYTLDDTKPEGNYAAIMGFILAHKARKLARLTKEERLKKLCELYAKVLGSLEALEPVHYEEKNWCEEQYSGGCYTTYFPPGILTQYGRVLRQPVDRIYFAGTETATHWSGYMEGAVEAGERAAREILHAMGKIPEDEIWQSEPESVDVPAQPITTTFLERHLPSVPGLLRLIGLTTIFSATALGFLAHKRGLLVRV
Assay type: biochemical
Assay Readout: SI, hMAO-B selectivity index = IC50(hMAO-A)/IC50(hMAO-B)

INSERT INTO results (compound, reported_result) VALUES
  ('C[n+]1c(-c2ccccc2)c(-c2ccccc2)n(CC(O)c2ccccc2)[c]1[Au-][O]C(=O)[C@@H]1CCCN1C(=O)OC(C)(C)C (stereo partly drawn) [3bP]', 0.39),
  ('C[n+]1[c]([Ag-][O]C(=O)[C@@H]2CCCN2C(=O)OC(C)(C)C)n(CC(O)c2ccccc2)c2ccccc21 (stereo partly drawn) [4aP]', 0.32),
  ('C[n+]1c(Cl)c(Cl)n(CC(O)c2ccccc2)[c]1[Au-][O]C(=O)[C@@H]1CCCN1C(=O)OC(C)(C)C (stereo partly drawn) [2bP]', 0.37),
  ('C[n+]1ccn(CC(O)c2ccccc2)[c]1[Au-][O]C(=O)[C@@H]1CCCN1C(=O)OC(C)(C)C (stereo partly drawn) [1bP]', 0.35),
  ('C[n+]1c(Cl)c(Cl)n(CC(O)c2ccccc2)[c]1[Ag-][O]C(=O)[C@@H]1CCCN1C(=O)OC(C)(C)C (stereo partly drawn) [2aP]', 1.53),
  ('C[n+]1[c]([Au-][O]C(=O)[C@@H]2CCCN2C(=O)OC(C)(C)C)n(CC(O)c2ccccc2)c2ccccc21 (stereo partly drawn) [4bP]', 0.03);

====

Test system: RAW 264.7 cells
Procedure Details: MTT cell viability, RAW 264.7
Format: cell-based, murine
Stated Conditions: Mus musculus, RAW264.7; RAW 264.7, MTT, 24 h
Assay Readout: IC50

INSERT INTO results (compound, assay_readout, reported_result) VALUES
  ('COc1ccc2c(c1)c(CC(=O)O)c(C)n2C(=O)c1ccc(Cl)cc1 [Indomethacin, reference compound]', 'IC50', '> 50 µM');

====

Assay System: electric eel acetylcholinesterase (eeAChE) (Electrophorus electricus, UniProt O42275)
Sequence (O42275 24-633): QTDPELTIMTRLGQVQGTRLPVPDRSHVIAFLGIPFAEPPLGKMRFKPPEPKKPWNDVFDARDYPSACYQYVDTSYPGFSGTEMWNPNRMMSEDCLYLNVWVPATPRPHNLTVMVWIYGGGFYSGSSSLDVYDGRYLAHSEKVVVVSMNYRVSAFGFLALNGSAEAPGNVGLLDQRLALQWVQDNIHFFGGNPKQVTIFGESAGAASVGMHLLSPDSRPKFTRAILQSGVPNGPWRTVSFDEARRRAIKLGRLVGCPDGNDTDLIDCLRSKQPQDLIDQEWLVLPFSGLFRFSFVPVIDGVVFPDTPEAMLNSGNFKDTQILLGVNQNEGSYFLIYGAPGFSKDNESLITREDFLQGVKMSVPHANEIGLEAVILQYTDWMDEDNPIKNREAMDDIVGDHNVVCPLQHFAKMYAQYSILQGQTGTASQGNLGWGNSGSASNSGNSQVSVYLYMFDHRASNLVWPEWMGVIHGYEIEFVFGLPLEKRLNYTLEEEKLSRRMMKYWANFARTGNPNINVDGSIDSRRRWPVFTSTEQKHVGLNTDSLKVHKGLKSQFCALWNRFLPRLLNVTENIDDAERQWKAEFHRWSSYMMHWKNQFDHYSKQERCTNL
Stated Conditions: read-out: IC50 (μM), hAChE (Table S1); Table S1, experimentally derived IC50, column headed hAChE
IC50 overview
Assay Readout: IC50 (µM)

INSERT INTO assay_data (compound, reported_result) VALUES
  ('C[n+]1[c]([Au-][O]C(=O)[C@@H]2CCCN2C(=O)OC(C)(C)C)n(CC(O)c2ccccc2)c2ccccc21 (stereo partly drawn)', 3.7),
  ('C[n+]1[c]([Ag-][O]C(=O)[C@@H]2CCCN2C(=O)OC(C)(C)C)n(CC(O)c2ccccc2)c2ccccc21 (stereo partly drawn)', 13.9),
  ('C[n+]1c(Cl)c(Cl)n(CC(O)c2ccccc2)[c]1[Au-][O]C(=O)[C@@H]1CCCN1C(=O)OC(C)(C)C (stereo partly drawn)', 4.7);
